Origin of the recorded values: patent US7897602B2

- TARGET_ENTITY: Aurora A kinase (Homo sapiens)
- Construct: purchased Upstate
- Sequence (O14965 1-403): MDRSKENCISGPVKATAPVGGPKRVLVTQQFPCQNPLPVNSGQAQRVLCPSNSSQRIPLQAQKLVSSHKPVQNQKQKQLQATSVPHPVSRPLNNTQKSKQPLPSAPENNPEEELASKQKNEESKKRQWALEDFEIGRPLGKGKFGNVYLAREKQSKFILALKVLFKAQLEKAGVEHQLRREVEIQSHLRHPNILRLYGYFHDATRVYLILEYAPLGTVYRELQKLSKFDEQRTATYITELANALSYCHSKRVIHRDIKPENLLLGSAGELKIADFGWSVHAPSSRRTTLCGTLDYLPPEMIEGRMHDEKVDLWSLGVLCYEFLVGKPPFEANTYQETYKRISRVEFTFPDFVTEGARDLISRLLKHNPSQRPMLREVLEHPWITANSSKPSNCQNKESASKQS
- ASSAY_TEXT: Aurora A kinase assay ([γ-33P]ATP, CHOCKtide substrate)
- Assay type: biochemical
- TEST_CONTEXT: 1.0 μM test compound
Counter-ions that a name gives are not always drawn.
READOUT_NAME: inhibition at 1 µM (%)

(A) O=C(O)CCc1c(/C=C2\C(=O)Nc3ccc(S(=O)(=O)N4CCCCC4)cc32)[nH]c2c1C(=O)CCC2
(B) O=C(O)CCc1c(/C=C2\C(=O)Nc3ccc(-c4cc5ccccc5s4)cc32)[nH]c2c1C(=O)CCC2
(C) CCOC(=O)CCc1c(/C=C2\C(=O)Nc3ccc(NC(=O)NC45CC6CC(CC(C6)C4)C5)cc32)[nH]c2c1C(=O)CCC2
Sort key = inhibition at 1 µM. Sort direction = ascending. Apply to the list above. Answer format: list of labels, ordered as asked. C, B, A
(C: 2.4%, B: 31.4%, A: 99.9%)

(1) CN(C)S(=O)(=O)c1ccc2c(c1)/C(=C/c1[nH]c3c(c1CCC(=O)O)C(=O)CCC3)C(=O)N2
(2) CN1CCN(S(=O)(=O)c2ccc3c(c2)/C(=C/c2[nH]c4c(c2CCC(=O)O)C(=O)CCC4)C(=O)N3)CC1 [DCB-70107, hydrochloride]
Decide: 1 or 2 , by lowest recorded inhibition at 1 µM. Reply with the label of the item you choose. 2
